// provenance: patent US10485235B2

As shown below, each of these compounds has a reported Plant response rating, Barnyardgrass value.
tested on: barnyardgrass (Echinochloa crus-galli); assay: Test A postemergence, barnyardgrass; assay type: in vivo; settings: 125 g ai/ha, postemergence; 0 to 100 scale, 0 is no effect, 100 is complete control; approximately 10 days

FC(F)(F)/C=C/COc1c(I)cccc1Oc1ncc(Cl)cn1 [Compound 61]
50
Cc1cccc(Oc2ncc(Cl)cn2)c1OC/C=C/Cl [Compound 59]
100
CC(C)CCOc1c(Br)cccc1Oc1ncc(Cl)cn1 [Compound 12]
10
Cc1cccc(Oc2ncc(Cl)cn2)c1OCCCC#N [Compound 70]
30
N#Cc1cccc(Oc2ncc(Cl)cn2)c1OCC(F)(F)C(F)F [Compound 14]
80
N#Cc1cccc(Oc2ncc(Cl)cn2)c1OCCCC(F)(F)F [Compound 72]
30
FCCCOc1c(F)cccc1Oc1ncc(Cl)cn1 [Compound 26]
10
N#Cc1cccc(Oc2ncc(F)cn2)c1OCCC(F)(F)F [Compound 40]
50

Turning to the following compound.
Query: Read off the recorded Plant response rating, Barnyardgrass for N#CCCCOc1c(C#N)cccc1Oc1ncc(Cl)cn1 [Compound 22]
Response: 0
